- System tested: FTM-NN protein (membrane anchorless form of the Long fusion protein of hRSV, 70 kDa) (human respiratory syncytial virus, …, UniProt P12568 26-524)
- Test description: competition ELISA, periplasmic extract diluted 1:100, competitor 101F Fab
Readout label: % Inhibition 101F Fab (1:100 PE) (%)

1) PMP13E12 (VHH) VHH: EVQLVESGGGLVQAGGSLRLSCAASGRTFSRYIMGWFRQAPGKEREFVGAISRSGDITSFADFVKGRFTMSRDNAKNTLYLQMNSLEPEDTAVYSCAANSDTYYIYSDIVVPERYDYWGQGTQVTVSS = 74
2) PMP13C1 (VHH) VHH: EVQLVESGGGLVQPGGSLRLSCEASGFTWDYYVIGWFRQAPGKEREGLSCISSDGSTTYADSVKGRFTISRDNAKNTVYLQMNSLEPEDTAVYYCATDPALGCYSGSYYPRYDYWGQGTQVTVSS = 57
3) PMP13A1 (VHH) VHH: EVQLVESGGGLVQPGGSLRLSCAASGLTLDYYALGWFRQAPGKEREGVSCISSADHSTTYADSVKGRFTISWDNAKNTVYLQMNSLKPEDTAVYYCAADPALGCYSGNYYPRYDYWGQGTQVTVSS = 74
4) PMP13D1 (VHH) VHH: EVQLVESGGGLVQPGGSLRLSCATSGFTEDYYVIGWFRQAPGKEREGVSCMSSSGDSTTYADSVKGRFTISRDNAKNMVYLQMTSLKPEDTAVYYCAADFALGCYSGSYYPRYDYWGQGTQVTVSS = 78
5) PMP23E5 (VHH) VHH: EVQLMESGGGLVQAGGSLRLSCAASGGTFSSYAMGWFRQAPGEERDFVAAIGWSGNSPYYAQFVKGRFTISRDNAKNTVHLQMNSLKPEDTAVYYCAAAHNTMGSDYEGYDYWGQGTQVTVSS = 37
6) PMP19E2 (VHH) VHH: EVQLVESGGGLVQPGGSLRLSCAASGLTLDYYALGWFRQAPGKEREGVSCISSSDHTTTYTDSVKGRFTISWDNAKNTLYLQMNSLKPEDTAVYYCAADPALGCYSGSYYPRYDFWGQGTQVTVSS = 74
7) PMP1B2 (VHH) VHH: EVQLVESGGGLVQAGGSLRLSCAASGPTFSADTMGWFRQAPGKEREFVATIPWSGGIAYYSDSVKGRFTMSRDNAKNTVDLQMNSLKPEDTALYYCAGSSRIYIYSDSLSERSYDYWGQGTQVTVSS = 82
8) PMP1A2 (VHH) VHH: EVQLVESGGGLVQAGGSLRLSCAASERTFSYYAMGWFRQAPGKEREFVATISRSGEWIYYKDAMKGRFTISRDNANNAVYLQMNSLQPEDTAIYYCAADSLGGFRSASDYYNTNTYAYWGQGTQVTVSS = 82
9) PMP13B4 (VHH) VHH: EVQLVESGGGLVQAGGSLRLSCAASGFTFDDYAIGWFRQAPGKEREAVSCISSSDGSTYYADSVKGRFTISSDNAKNMVYLQMNSLKPEDTAVYYCAADLLRTAVGCLDYRGTYYPRTTMDYRGKGTLVTVSS = 82
